MEASUREMENT SETUP: human
This listing pairs compounds with measured Hepatotoxicity (steatosis).
MEASUREMENT LABEL: Hepatotoxicity (steatosis)

> print(dat)
                                   compound  assay.value
1  O=C(CCOCCOCCOCCOCCC(=O)Nc1c(I)cc(I)c(C(=O)O)c1I)Nc1c(I)cc(I)c(C(=O)O)c1I            0
2                           N[C@@H]1CON=C1O            0
3  COC(=O)C(c1ccccc1)C1CCCCN1 (stereo not given) [METHYLPHENIDATE]            0
4    CCN(CC)CCNc1ccc(CO)c2sc3ccccc3c(=O)c12            1
5           C#CC(C)(O)CC (stereo not given)            0

* * *

This listing pairs molecules with measured Hepatotoxicity (severe hepatitis).
MEASUREMENT SETUP: human
MEASUREMENT LABEL: Hepatotoxicity (severe hepatitis)

> print(dat)
                                    molecule  assay.value
 1  CC(=O)N[C@H]1[C@H]([C@H](O)[C@H](O)CO)OC(C(=O)O)=C[C@@H]1N=C(N)N            0
 2  CC(C)[C@H](N)C(=O)OCCOCn1cnc2c(=O)[nH]c(N)nc21            0
 3    CCn1cc(C(=O)O)c(=O)c2cnc(N3CCNCC3)nc21            0
 4  CN(C)CCOC1=Cc2ccccc2Sc2ccc(Cl)cc21 [ZOTEPINE]            0
 5                      CCOC(=O)n1ccn(C)c1=S            3
 6                          N#CN [CYANAMIDE]            0
 7    COc1ccc(OC)c(Cc2cnc3nc(N)nc(N)c3c2C)c1            0
 8                                 CCOC(N)=O            4
 9  CCCCN(CCCC)CCC(O)c1cc2c(Cl)cc(Cl)cc2c2cc(C(F)(F)F)ccc12 (stereo not given)            0
10  CC(=O)Nc1ccc(OC(=O)c2ccccc2OC(C)=O)cc1 [BENORILATE]            1

* * *

This listing pairs compounds with measured Hepatotoxicity (cytolytic).
MEASUREMENT SETUP: human
MEASUREMENT LABEL: Hepatotoxicity (cytolytic)

> print(dat)
                                    compound           measurement.label  assay.value
 1  COc1ccc(C(CN(C)C)C2(O)CCCCC2)cc1 (stereo unspecified)  Hepatotoxicity (cytolytic)            3
 2  CNC1=Nc2ccc(Cl)cc2C(c2ccccc2)=[N+]([O-])C1 [CHLORDIAZEPOXIDE]  Hepatotoxicity (cytolytic)            1
 3  C[C@]1(O)CC[C@H]2[C@@H]3CCC4=CC(=O)CC[C@@H]4[C@H]3CC[C@@]21C  Hepatotoxicity (cytolytic)            0
 4  CN(C)[C@@H]1C(O)=C(C(N)=O)C(=O)[C@@]2(O)C(O)=C3C(=O)c4c(O)cccc4[C@@](C)(O)[C@H]3C[C@@H]12  Hepatotoxicity (cytolytic)            2
 5  O=C1CCC(N2C(=O)c3ccccc3C2=O)C(=O)N1 (stereo unspecified) [THALIDOMIDE]  Hepatotoxicity (cytolytic)            2
 6  CNC(=O)C[C@@H](N)C(=O)N[C@@H](C(=O)N[C@@H]1C(=O)N2[C@@H]1SC(C)(C)[C@@H]2C(=O)O)c1ccc(O)cc1  Hepatotoxicity (cytolytic)            0
 7  Nc1nc(Cl)nc2c1ncn2[C@H]1C[C@H](O)[C@@H](CO)O1  Hepatotoxicity (cytolytic)            1
 8                             C=COCC(F)(F)F  Hepatotoxicity (cytolytic)            3
 9  O=c1[nH]c2ccccc2n1C1CCN(CCCC(c2ccc(F)cc2)c2ccc(F)cc2)CC1 [PIMOZIDE]  Hepatotoxicity (cytolytic)            0
10  Clc1ccc(COC(Cn2ccnc2)c2ccc(Cl)cc2Cl)cc1 (stereo unspecified)  Hepatotoxicity (cytolytic)            0
11  C[C@@H](O)[C@H]1C(=O)N2C(C(=O)O)=C([C@H]3CCCO3)S[C@H]12  Hepatotoxicity (cytolytic)            0
12  Clc1ccc(C(c2ccccc2Cl)C(Cl)Cl)cc1 (stereo unspecified)  Hepatotoxicity (cytolytic)            0
13             CN(C)CCCN1c2ccccc2CCc2ccccc21  Hepatotoxicity (cytolytic)            9
14  CCC1(c2ccc(N)cc2)CCC(=O)NC1=O (stereo unspecified) [AMINOGLUTETHIMIDE]  Hepatotoxicity (cytolytic)            2
15  COC(=O)C(c1ccccc1)C1CCCCN1 (stereo unspecified) [METHYLPHENIDATE]  Hepatotoxicity (cytolytic)            3
16  CC1(C)S[C@@H]2[C@H](NC(=O)C(c3ccccc3)S(=O)(=O)O)C(=O)N2[C@H]1C(=O)O (stereo partly specified)  Hepatotoxicity (cytolytic)            0
17  O=C(NCCN1CCN(c2cccc3c2OC[C@H](CO)O3)CC1)c1ccc(F)cc1  Hepatotoxicity (cytolytic)            0
18  O=C(Nc1cccc2c(=O)cc(-c3nnn[nH]3)oc12)c1ccc(OCCCCc2ccccc2)cc1  Hepatotoxicity (cytolytic)            0
19  CN[C@@H]1[C@@H](O)[C@@H](O[C@@H]2[C@@H](O)[C@H](O[C@H]3OC(CN)=CC[C@H]3N)[C@@H](N)C[C@H]2N)OC[C@]1(C)O  Hepatotoxicity (cytolytic)            0
20  COCCCOc1ccnc(C[S+]([O-])c2nc3ccccc3[nH]2)c1C (stereo unspecified)  Hepatotoxicity (cytolytic)            1
21  COCCc1ccc(OCC(O)CNC(C)C)cc1 (stereo unspecified)  Hepatotoxicity (cytolytic)            1
22  O=C1Nc2ccc(Cl)cc2[C@@](C#CC2CC2)(C(F)(F)F)O1  Hepatotoxicity (cytolytic)            8
23          CCc1[nH]c(=O)[nH]c1C(=O)c1ccncc1  Hepatotoxicity (cytolytic)            0
24  COCc1c(C(=O)OC(C)C)ncc2[nH]c3ccc(OCc4ccccc4)cc3c12  Hepatotoxicity (cytolytic)            0
25  CC[C@H](C)C(=O)O[C@H]1C[C@H](O)C=C2C=C[C@H](C)[C@H](CC[C@@H](O)C[C@@H](O)CC(=O)O)[C@H]21  Hepatotoxicity (cytolytic)            3
26            COC(=O)c1nc2cc(Cl)c3cccnc3c2o1  Hepatotoxicity (cytolytic)            0
27          O=C(O)CCC(=O)c1ccc(-c2ccccc2)cc1  Hepatotoxicity (cytolytic)            1
28  CCc1ccc(CCOc2ccc(CC3SC(=O)NC3=O)cc2)nc1 (stereo unspecified)  Hepatotoxicity (cytolytic)            3
29  CC(=O)NCCCCCCNC(C)=O [HEXAMETHYLENEBISACETAMIDE]  Hepatotoxicity (cytolytic)            1
30  CCCC(C)C1(CC)C(=O)NC(=S)NC1=O (stereo unspecified)  Hepatotoxicity (cytolytic)            1
31  CCCCOCC(CN1C(=O)N(CC(COCCCC)OC(N)=O)C(=O)C(CC)(c2ccccc2)C1=O)OC(N)=O (stereo unspecified) [DIFEBARBAMATE]  Hepatotoxicity (cytolytic)            9
32             NS(=O)(=O)OCCCCCCCOS(N)(=O)=O  Hepatotoxicity (cytolytic)            0
33        O=C(O)CCCCCCNC1c2ccccc2CCc2ccccc21  Hepatotoxicity (cytolytic)           17
34  O=C(CCCN1CCN(c2ccc(F)cc2)CC1)NC1c2ccccc2CSc2ccccc21 (stereo unspecified) [MONATEPIL]  Hepatotoxicity (cytolytic)            0
35          CC(C)/N=C/Nc1ccc(-c2c[nH]cn2)cc1  Hepatotoxicity (cytolytic)            0
36  CCCNCC(O)COc1ccccc1C(=O)CCc1ccccc1 (stereo unspecified)  Hepatotoxicity (cytolytic)            1

* * *

MEASUREMENT SETUP: human, serum
This listing pairs compounds with measured Hepatotoxicity (acute).

COMPOUND	Hepatotoxicity (acute)
COc1ccc2cc([C@H](C)C(=O)O)ccc2c1	19
CCC[C@H](N[C@@H](C)C(=O)N1[C@H](C(=O)O)C[C@@H]2CCCC[C@@H]21)C(=O)OCC	1
C=CC[C@@H]1/C=C(\C)C[C@H](C)C[C@H](OC)[C@H]2O[C@@](O)(C(=O)C(=O)N3CCCC[C@H]3C(=O)O[C@H](/C(C)=C/[C@@H]3CC[C@@H](O)[C@H](OC)C3)[C@H](C)[C@@H](O)CC1=O)[C@H](C)C[C@@H]2OC [TACROLIMUS ANHYDROUS]	0
O=C(Oc1ccccc1C(=O)O)c1ccccc1O [SALSALATE]	2
Cc1ccc(O)c2ncccc12	1
CNNCc1ccc(C(=O)NC(C)C)cc1	2
CCOC(=O)Nc1ccc2c(c1)N(C(=O)CCN1CCOCC1)c1ccccc1S2	0
CCCCCCCCCCCCCCCCSCC(COC)COP(=O)([O-])OCC[N+](C)(C)C (stereo not drawn)	0
